- System: human leukemia cell HL-60
- PROTOCOL SUMMARY: HL-60 cell differentiation induction, NBT reducing activity (Example 20)
- Type: cell-based
- REPORTED CONDITIONS: compound 10^−5 M; with 1α,25(OH)2D3 (2 × 10^−9 M); 4 days
Ratio of NBT reduction activity-positive cells by entry:
READOUT NAME: Ratio of NBT reduction activity-positive cells (%)

compound="CCCCCCCCCCCCCCCCOC(=O)[C@H](NC(=O)[C@H](CSCc1ccccc1)NC(=O)CC[C@H](N)C(=O)O)c1ccccc1.Cl [Example 11]" measured=13.8
compound="CCCCCCCCOC(=O)[C@H](NC(=O)[C@H](CSCc1ccccc1)NC(=O)CC[C@H](N)C(=O)OCC)c1ccccc1.Cl [Comparative Example 2, reference compound]" measured=18.2
compound="CCCCCCCCCCCCCCCCOC(=O)[C@@H](N)CCC(=O)N[C@@H](CSCc1ccccc1)C(=O)N[C@@H](C(=O)OCC)c1ccccc1.Cl [Example 4]" measured=31.3
compound="CCOC(=O)[C@@H](N)CCC(=O)N[C@@H](CSCc1ccccc1)C(=O)N[C@@H](C(=O)OCC)c1ccccc1.Cl [Comparative Example 1, reference compound]" measured=13.0

* * *

- Test system: HL-60 cells
- PROTOCOL SUMMARY: HL-60 cell differentiation induction, NBT reducing activity, DMSO as solvent (Example 21)
- Assay type: cell-based, human
- REPORTED CONDITIONS: compound 10^−6 M in DMSO; with 9-cis-RA (5 × 10^−9 M)
Structures can show the parent of a compound that is named as a salt. Starred links: 1 amine or outer side, 2 acyl side, 3 side chain; linkers in the order of their positions; H or OH if unused. Non-standard residues stand in square brackets, D forms with d. Residues, ends and D or L forms follow the SMILES beside them. *: point of attachment. γGlu = O=C(O)[C@H](CCC(=O)[*:2])N[*:1]; dPhg = N[C@@H](C(=O)O)c1ccccc1; Bn = c1ccc(C*)cc1
READOUT NAME: Ratio of NBT reduction activity-positive cells (%)

molecule=CCCCCCCCCCCCCCCCOC(=O)[C@H](NC(=O)[C@H](CSCc1ccccc1)NC(=O)CC[C@H](N)C(=O)OCC)c1ccccc1.Cl measured=8.8
molecule=CCCCCCCCCCCCCCCCOC(=O)[C@@H](N)CCC(=O)N[C@@H](CSCc1ccccc1)C(=O)N[C@@H](C(=O)OCC)c1ccccc1.Cl measured=21.2
molecule="N[C@@H](CCC(=O)N[C@@H](CSCc1ccccc1)C(=O)N[C@@H](C(=O)O)c1ccccc1)C(=O)O [Comparative Example 3, Glu(Cys(Bzl)-D-Phg-OH)-OH Hydrochloride, reference compound] (γGlu-Cys(Bn)-[dPhg]-OH)" measured=6.1
molecule=CCCCCCCCCCCCCCCCOC(=O)[C@H](CCC(=O)N[C@@H](CSCc1ccccc1)C(=O)N[C@@H](C(=O)OCC)c1ccccc1)NC(C)=O measured=6.5
